# Organism: Rattus norvegicus
# protocol: Open TG-GATES - Regimen: Single
# Assay type: toxicity, organism-based, Sprague-Dawley
# Design: regimen Single, gender Male, age 6 weeks
# condition-set: in vivo, po, 300 mg/kg, 24 h, tissue Plasma, route gavage, dose level Middle
measured-metric: Na

{"molecule": "O=C(O)c1cc(/N=N/c2ccc(S(=O)(=O)Nc3ccccn3)cc2)ccc1O", "measured-metric": "Na", "value": "140.6 meq/L"}
{"molecule": "Clc1ccccc1CN1CCc2sccc2C1", "measured-metric": "Na", "value": "142 meq/L"}
{"molecule": "C[C@H](CS)C(=O)N1CCC[C@H]1C(=O)O", "measured-metric": "Na", "value": "138.8 meq/L"}
{"molecule": "CCc1cc(C(N)=S)ccn1 [ETHIONAMIDE]", "measured-metric": "Na", "value": "141 meq/L"}
{"molecule": "O=C(O)c1cn(C2CC2)c2cc(N3CCNCC3)c(F)cc2c1=O", "measured-metric": "Na", "value": "140.2 meq/L"}

---

# Species: Rattus norvegicus
# protocol: Open TG-GATES - Regimen: Daily Repeat
# Format: toxicity, organism-based, Sprague-Dawley
# Design: regimen Daily Repeat, gender Male, age 6 weeks
# condition-set: in vivo, po, 0 mg/kg, […], tissue Plasma, route gavage, dose level Control, time 28 day
Label scheme for CRE: lower than 0.4 mg/dL is false (0), 0.4 mg/dL and above is true (1).

{"molecule": "Cn1c(=O)c2[nH]cnc2n(C)c1=O.O [THEOPHYLLINE]", "class-name": "false (0)"}
{"molecule": "O=C(O)c1cc(/N=N/c2ccc(S(=O)(=O)Nc3ccccn3)cc2)ccc1O [SULFASALAZINE]", "class-name": "true (1)"}
{"molecule": "NC(=O)N1c2ccccc2C=Cc2ccccc21 [CARBAMAZEPINE]", "class-name": "true (1)"}
{"molecule": "Clc1ccccc1CN1CCc2sccc2C1 [TICLOPIDINE]", "class-name": "true (1)"}
{"molecule": "COc1ccc2c(c1)c(CC(=O)O)c(C)n2C(=O)c1ccc(Cl)cc1 [INDOMETHACIN]", "class-name": "true (1)"}
{"molecule": "CC(=O)Oc1ccccc1C(=O)O [ASPIRIN]", "class-name": "true (1)"}
{"molecule": "CSc1ccc2c(c1)N(CCC1CCCCN1C)c1ccccc1S2 (stereo unspecified) [THIORIDAZINE]", "class-name": "true (1)"}
{"molecule": "NC(=O)N/N=C/c1ccc([N+](=O)[O-])o1 [NITROFURAZONE]", "class-name": "false (0)"}
{"molecule": "COc1ccc(Cc2nccc3cc(OC)c(OC)cc23)cc1OC [PAPAVERINE]", "class-name": "false (0)"}
{"molecule": "CN(C)CCC=C1c2ccccc2CCc2ccccc21 [AMITRIPTYLINE]", "class-name": "false (0)"}

---

Listed here: items and their measured Bas.
# Species: Rattus norvegicus
# protocol: Open TG-GATES - Regimen: Single
# Type: toxicity, organism-based, Sprague-Dawley
# Set-up: regimen Single, gender Male, age 6 weeks
# condition-set: in vivo, po, 100 mg/kg, 24 h, tissue Blood, route gavage, dose level Low
measured-metric: Bas (%)

{"compound": "O=C(O)c1cn(C2CC2)c2cc(N3CCNCC3)c(F)cc2c1=O", "value": 0}
{"compound": "O=C(O)c1cc(/N=N/c2ccc(S(=O)(=O)Nc3ccccn3)cc2)ccc1O", "value": 0}
{"compound": "CCc1cc(C(N)=S)ccn1 [ETHIONAMIDE]", "value": 0}
{"compound": "Clc1ccccc1CN1CCc2sccc2C1", "value": 1}
{"compound": "C[C@H](CS)C(=O)N1CCC[C@H]1C(=O)O", "value": 0}
